# System: Brain
# Experimental Conditions: rat, in vivo, iv, 4 h
Observable: log10 Vdu (log10 of the value in mL)

[[record]]
compound = "C=CCc1ccccc1OCC(O)CNC(C)C (stereo not given)"
observable = "log10 Vdu"
readout_number = 1.70

[[record]]
compound = "NCC1(CC(=O)O)CCCCC1"
observable = "log10 Vdu"
readout_number = 0.66

[[record]]
compound = "O=C1CN(/N=C/c2ccc([N+](=O)[O-])o2)C(=O)N1"
observable = "log10 Vdu"
readout_number = 0.20

[[record]]
compound = "CN1CC[C@]23c4c5ccc(O)c4O[C@H]2C(=O)CC[C@@]3(O)[C@H]1C5"
observable = "log10 Vdu"
readout_number = 0.60

[[record]]
compound = "CC(NC(C)(C)C)C(=O)c1cccc(Cl)c1 (stereo not given)"
observable = "log10 Vdu"
readout_number = 1.20


====

# Assay Overview: clinical
# Experimental Conditions: human, CSF and plasma
# Description: Unbound CSF to plasma concentration ratio in human
Entries and their Kp uu values follow.
Observable: Kp uu

[[record]]
compound = "COc1cccc(C2(O)CCCCC2CN(C)C)c1 (configuration not stated)"
readout_number = 1.44

[[record]]
compound = "NCC(CC(=O)O)c1ccc(Cl)cc1 (configuration not stated)"
readout_number = 0.17

[[record]]
compound = "CO/N=C(\\C(=O)N[C@@H]1C(=O)N2C(C(=O)O)=C(COC(C)=O)CS[C@H]12)c1csc(N)n1"
readout_number = 0.17

[[record]]
compound = "Cc1c(O)cccc1C(=O)N[C@@H](CSc1ccccc1)[C@H](O)CN1C[C@H]2CCCC[C@H]2C[C@H]1C(=O)NC(C)(C)C"
readout_number = 0.045

[[record]]
compound = "CCn1cc(C(=O)O)c(=O)c2cc(F)c(N3CCNCC3)cc21"
readout_number = 0.11

[[record]]
compound = "COc1ccc2c(c1)c(CC(=O)O)c(C)n2C(=O)c1ccc(Cl)cc1"
readout_number = 0.27

[[record]]
compound = "CC1(C)O[C@@H]2[C@@H](CO[C@@]3(COS(N)(=O)=O)OC(C)(C)O[C@@H]23)O1 [TOPIRAMATE]"
readout_number = 1


====

The entries below are paired with their reported Kp at 4 h.
# Assay Overview: in vivo
# Experimental Conditions: Sprague-Dawley, rat, brain and plasma, iv, 2 (umol/kg)/hr
Observable: Kp at 4 h

[[record]]
molecule = "CN(C)CCC=C1c2ccccc2CCc2ccccc21"
observable = "Kp at 4 h"
readout_number = 20.1

[[record]]
molecule = "CC(C)NCC(O)COc1cccc2ccccc12 (configuration not stated)"
observable = "Kp at 4 h"
readout_number = 6.59

[[record]]
molecule = "CN(C)C(=O)C(CCN1CCC(O)(c2ccc(Cl)cc2)CC1)(c1ccccc1)c1ccccc1 [LOPERAMIDE]"
observable = "Kp at 4 h"
readout_number = 0.15

[[record]]
molecule = "NCC1(CC(=O)O)CCCCC1"
observable = "Kp at 4 h"
readout_number = 0.64

[[record]]
molecule = "CC(NC(C)(C)C)C(=O)c1cccc(Cl)c1 (configuration not stated)"
observable = "Kp at 4 h"
readout_number = 9.78

[[record]]
molecule = "CN1CC[C@]23c4c5ccc(O)c4O[C@H]2[C@@H](O[C@@H]2O[C@H](C(=O)O)[C@@H](O)[C@H](O)[C@H]2O)C=C[C@H]3[C@H]1C5 [MORPHINE GLUCURONIDE]"
observable = "Kp at 4 h"
readout_number = 0.008

[[record]]
molecule = "CN1CC[C@]23c4c5ccc(O)c4O[C@H]2C(=O)CC[C@@]3(O)[C@H]1C5"
observable = "Kp at 4 h"
readout_number = 2.29


====

# Assay Overview: in vivo
# Experimental Conditions: Sprague-Dawley, rat, CSF and plasma, iv, 2 (umol/kg)/hr
Observable: Kp uu at 4 h

[[record]]
molecule = "CC(NC(C)(C)C)C(=O)c1cccc(Cl)c1 (centres undefined)"
result = 0.49

[[record]]
molecule = "CN(C)CCC=C1c2ccccc2CCc2ccccc21"
result = 0.17

[[record]]
molecule = "NCC(CC(=O)O)c1ccc(Cl)cc1 (centres undefined)"
result = 0.027

[[record]]
molecule = "Cc1c(O)cccc1C(=O)N[C@@H](CSc1ccccc1)[C@H](O)CN1C[C@H]2CCCC[C@H]2C[C@H]1C(=O)NC(C)(C)C"
result = 0.067


Reference source: ChEMBL document CHEMBL1795238
